Biodistribution of radioactivity, Spleen reference
- Test Summary: Ex vivo biodistribution in normal mice
- Set-up: species or system ddY mice
- Assay Setup: i.v., 30 min after injection, mean (SD), 5 animals

# count of solved cases: 3
- Molecule: "CN(C)c1ccc(-c2nc3ccc(C4=N[O][99Tc-]5(=[O])([NH]4)[NH2+]C(c4ccc6nc(-c7ccc(N(C)C)cc7)sc6c4)=N[O]5)cc3s2)cc1 [[^99mTc]BT2B]"
  Observed: "10.91 (1.59) % injected dose per gram"
- Molecule: "CN(C)c1ccc(/C=C/c2ccc(C3=N[O][99Tc-]4(=[O])([NH]C(c5ccc(N(C)C)cc5)=N[O]4)[NH2+]3)cc2)cc1 (single isomer, unassigned) [[^99mTc]SB1A]"
  Observed: "7.86 (1.11) % injected dose per gram"
- Molecule: "CN(C)c1ccc(C2=N[O][99Tc-]3(=[O])([NH]2)[NH2+]C(c2ccc4nc(-c5ccc(N(C)C)cc5)sc4c2)=N[O]3)cc1 [[^99mTc]BT1B]"
  Observed: "3.11 (0.48) % injected dose per gram"

We now examine a further molecule.
### Prompt Entry under review: CN(C)c1ccc(/C=C/c2ccc(C3=N[O][99Tc-]4(=[O])([NH]3)[NH2+]C(c3ccc(/C=C/c5ccc(N(C)C)cc5)cc3)=N[O]4)cc2)cc1 (single isomer, unassigned) [[^99mTc]SB2A] . Reported Biodistribution of radioactivity, Spleen?
### Response 8.91 (3.26) % injected dose per gram
